The entries below come with measured pIC50 values attached.
molecular target: Nuclear receptor ROR-gamma (Homo sapiens, UniProt P51449); assay: Inverse agonist activity at RORgammat in human whole blood assessed as IL-17A production incubated for 1 hrs by ELISA analysis; format: tissue-based
Sequence (P51449 whole entry): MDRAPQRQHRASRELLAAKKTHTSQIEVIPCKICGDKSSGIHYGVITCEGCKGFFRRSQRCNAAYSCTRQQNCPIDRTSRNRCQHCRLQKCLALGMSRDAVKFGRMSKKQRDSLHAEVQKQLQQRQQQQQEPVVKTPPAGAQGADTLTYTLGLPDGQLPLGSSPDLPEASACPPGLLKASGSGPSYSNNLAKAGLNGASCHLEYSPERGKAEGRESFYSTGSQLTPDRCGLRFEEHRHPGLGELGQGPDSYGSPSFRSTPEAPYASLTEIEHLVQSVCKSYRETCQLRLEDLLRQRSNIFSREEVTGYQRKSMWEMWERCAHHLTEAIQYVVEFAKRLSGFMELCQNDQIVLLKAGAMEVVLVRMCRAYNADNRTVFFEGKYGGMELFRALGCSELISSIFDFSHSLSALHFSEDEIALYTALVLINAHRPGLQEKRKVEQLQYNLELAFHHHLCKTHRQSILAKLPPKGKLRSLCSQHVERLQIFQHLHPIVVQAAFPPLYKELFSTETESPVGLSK
pIC50: −log10 of the molar value.
Readout Name: pIC50

INSERT INTO measurements (given_smiles, readout_number) VALUES
  ('Cc1cc(C(O)(C(F)(F)F)C(F)(F)F)ccc1-c1sc(C(=O)NCC(C)(C)O)nc1C(=O)N1CCCC[C@@H]1C', 6.80),
  ('CCN(CC)C(=O)c1nc(C(=O)N2C[C@H](O)C[C@H](O)C2)sc1-c1ccc(C(O)(C(F)(F)F)C(F)(F)F)c(Cl)c1Cl', 6.72),
  ('CC(C)(O)CNC(=O)c1nc(C(=O)N2CCC(F)CC2)c(-c2ccc(C(O)(C(F)(F)F)C(F)(F)F)c(Cl)c2Cl)s1', 6.05),
  ('Cc1cc(C(O)(C(F)(F)F)C(F)(F)F)ccc1-c1sc(C(=O)NCC(C)(C)O)nc1C(=O)N1CCC[C@@H]1C', 6.28),
  ('C[C@H]1CCCCN1C(=O)c1nc(C(=O)NCC(C)(C)O)sc1-c1ccc(C(O)(C(F)(F)F)C(F)(F)F)cc1Cl', 7.09),
  ('C[C@H]1C[C@@H](F)CCN1C(=O)c1nc(C(=O)NCC(C)(C)O)sc1-c1ccc(C(O)(C(F)(F)F)C(F)(F)F)c(Cl)c1Cl', 6.68),
  ('C[C@H]1CC(F)(F)CN1C(=O)c1nc(C(=O)NCC(C)(C)O)sc1-c1ccc(C(O)(C(F)(F)F)C(F)(F)F)c(Cl)c1Cl', 6.92),
  ('C[C@H]1CCCN1C(=O)c1nc(C(=O)NCC(C)(C)O)sc1-c1ccc(C(O)(C(F)(F)F)C(F)(F)F)cc1Cl', 6.62);

----------
target: Cytochrome P450 2C9 (Homo sapiens)
Sequence (P11712 whole entry): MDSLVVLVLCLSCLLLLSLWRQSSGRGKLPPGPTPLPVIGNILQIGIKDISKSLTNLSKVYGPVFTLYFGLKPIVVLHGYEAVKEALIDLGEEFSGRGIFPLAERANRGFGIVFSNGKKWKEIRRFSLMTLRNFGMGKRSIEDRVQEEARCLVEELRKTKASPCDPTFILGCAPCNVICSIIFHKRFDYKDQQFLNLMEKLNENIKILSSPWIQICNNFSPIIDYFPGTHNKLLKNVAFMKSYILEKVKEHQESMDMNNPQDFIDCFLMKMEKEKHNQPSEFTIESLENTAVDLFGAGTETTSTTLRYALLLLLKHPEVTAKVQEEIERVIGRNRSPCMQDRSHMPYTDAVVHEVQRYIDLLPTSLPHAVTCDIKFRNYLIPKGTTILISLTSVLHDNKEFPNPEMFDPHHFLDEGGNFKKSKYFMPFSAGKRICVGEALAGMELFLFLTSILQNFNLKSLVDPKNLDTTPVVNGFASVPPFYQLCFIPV
Readout Name: IC50

INSERT INTO results (given_smiles, measured_on, result) VALUES
  ('C[C@H]1CCCN1C(=O)c1nc(C(=O)NCC(C)(C)O)sc1-c1ccc(C(O)(C(F)(F)F)C(F)(F)F)c(Cl)c1Cl', 'Cytochrome P450 2C9 (Homo sapiens)', '4.4 µM');

----------
assay: Oral bioavailability in male Sprague-Dawley rat at 5 mg/kg measured 24 hrs post dose by LC-MS/MS analysis; type: ADME, organism-based; details: in vivo
Readout Name: bioavailability (%)

INSERT INTO assay_data (given_smiles, units_symbol, readout_number) VALUES
  ('C[C@H]1CCCN1C(=O)c1nc(C(=O)NCC(C)(C)O)sc1-c1ccc(C(O)(C(F)(F)F)C(F)(F)F)c(Cl)c1Cl', '%', 69);

----------
molecular target: UniProt:P51449; test: Inverse agonist activity at human RORgammat by mammalian 1-hybrid assay
pIC50: −log10 of the molar value.
Recorded pIC50, one value per entry.
Readout Name: pIC50

INSERT INTO assay_data (given_smiles, readout_name, readout_number) VALUES
  ('Cc1c(C(N)=O)cc(-c2ccc(C(O)(C(F)(F)F)C(F)(F)F)cc2)n1CC1CCCCC1', 'pIC50', 5.77),
  ('CN(C(=O)c1nc(C(=O)NCC(C)(C)O)sc1-c1ccc(C(O)(C(F)(F)F)C(F)(F)F)c(Cl)c1Cl)C1CCC1', 'pIC50', 8.03),
  ('Cc1c(S(N)(=O)=O)cc(-c2ccc(S(=O)(=O)NC(C)(C)C)cc2)n1CC1CCCCC1', 'pIC50', 5.75);
